testTarget: GPR40 (Homo sapiens)
Construct: host or cells: HEK293 (ChemiBrite cell line)
Sequence (O14842 whole entry, species assumed): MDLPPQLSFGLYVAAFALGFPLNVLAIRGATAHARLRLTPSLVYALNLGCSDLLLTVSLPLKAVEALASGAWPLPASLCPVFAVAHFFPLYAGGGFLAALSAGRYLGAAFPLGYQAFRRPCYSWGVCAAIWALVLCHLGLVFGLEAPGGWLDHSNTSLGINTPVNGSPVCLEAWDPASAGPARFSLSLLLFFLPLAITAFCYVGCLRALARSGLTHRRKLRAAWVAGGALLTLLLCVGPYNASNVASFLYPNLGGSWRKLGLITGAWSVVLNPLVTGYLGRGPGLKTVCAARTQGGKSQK
protocolDetails: Promoter-luciferase assay to measure GPR40 activation (HEK293 cells stably transfected with GPR40 cDNA)
Assay type: cell-based
cond: EC50 in Luciferase assay, HEK293 cells stably transfected with GPR40, 5xSRE-luciferase
assayMetric: EC50 (nM)
Report the figure in nM without appending any unit label.

q: Could you tell me which EC50 is on file for CC#C[C@@H](CC(=O)[O][Ca][O]C(=O)C[C@H](C#CC)c1ccc(OCc2cccc(CN3CCc4sc(C)cc4C3)c2)cc1)c1ccc(OCc2cccc(CN3CCc4sc(C)cc4C3)c2)cc1 ?
a: 4.6
